Experiment: Immobilized artificial membrane chromatography (IAMC)
Assay type: physicochemical
Details: baicalin constructs; isocratic, phosphate buffer pH 7.4 and 20% MeCN
Decision: Capacity factor kIAM >= 6 yields T, all other cases yield F.

Check out these entries, answers already filled in.
CN1C(=O)C(Cc2ccc(NC(=O)C3OC(Oc4cc5oc(-c6ccccc6)cc(=O)c5c(O)c4O)C(O)C(O)C3O)cc2)NC(=O)C1Cc1ccc2ccc3cccc4ccc1c2c34 (stereo not shown) [Compound 5d]; T
O=C(O)[C@H]1O[C@@H](Oc2cc3oc(-c4ccccc4)cc(=O)c3c(O)c2O)[C@H](O)[C@@H](O)[C@@H]1O [Baicalin, baicalin, reference compound]; F
CN1C(=O)C(Cc2ccc(NC(=O)C3OC(Oc4cc5oc(-c6ccccc6)cc(=O)c5c(O)c4O)C(O)C(O)C3O)cc2)NC(=O)C1Cc1ccccc1 (stereo not shown) [Compound 5a, DKP Phe(p-NH—CO-baicalin)-N-MePhe]; F

Query :: Assess whether reported Capacity factor kIAM for CCCCCCC1C(=O)NC(Cc2ccc(NC(=O)C3OC(Oc4cc5oc(-c6ccccc6)cc(=O)c5c(O)c4O)C(O)C(O)C3O)cc2)C(=O)N1C (stereo not shown) [Compound 5f, DKP Phe(p-NH—CO-baicalin)-N-MeOct] sits at 6 or higher.
Result :: T

Query :: Entry CN1C(=O)C(Cc2ccc(NC(=O)C3OC(Oc4cc5oc(-c6ccccc6)cc(=O)c5c(O)c4O)C(O)C(O)C3O)cc2)NC(=O)C1CCc1ccccc1 (stereo not shown) [Compound 5e, DKP Phe(p-NH—CO-baicalin)-N-MeHomoPhe] please
Result :: F

Query :: Entry CN1C(=O)C(Cc2ccc(NC(=O)C3OC(Oc4cc5oc(-c6ccccc6)cc(=O)c5c(O)c4O)C(O)C(O)C3O)cc2)NC(=O)C1Cc1ccc2ccccc2c1 (stereo not shown) [Compound 5c, DKP Phe(p-NH—CO-baicalin)-N-Me2Nal] please
Result :: T

// data source = patent US8008492B2
